All values here come from patent US20240150293A1.

test system: Mcl-1 protein (UniProtKB Q07820) (Homo sapiens (Human), UniProt Q07820)
Sequence (Q07820 whole entry): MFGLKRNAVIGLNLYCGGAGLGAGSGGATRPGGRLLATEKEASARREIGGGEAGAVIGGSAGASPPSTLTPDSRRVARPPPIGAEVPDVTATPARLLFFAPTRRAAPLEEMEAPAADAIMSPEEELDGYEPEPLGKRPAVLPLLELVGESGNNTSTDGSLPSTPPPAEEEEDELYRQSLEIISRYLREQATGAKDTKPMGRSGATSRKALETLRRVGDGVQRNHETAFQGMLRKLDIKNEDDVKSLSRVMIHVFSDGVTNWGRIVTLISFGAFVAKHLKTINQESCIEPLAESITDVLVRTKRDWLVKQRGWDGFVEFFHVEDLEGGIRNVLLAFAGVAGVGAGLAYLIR
test protocol: Inhibition of Mcl-1 by the fluorescence polarisation assay (Example A, Method A)
condition set: fluorescence polarization assay
Please go through the items and note down their Ki.
Param answer (str): number followed by unit.

**Query** Report measured Ki on Mcl-1 protein (UniProtKB Q07820) (Homo sapiens (Human), UniProt Q07820); entry: O=C(O)[C@]1(Nc2cccc(Cl)c2)CC[C@@]2(CC1)c1ccccc1C[C@@H]2CCCOc1ccnc2ccsc12 [Example 440]
**Result** 47 nM

**Query** Provide Mcl-1 protein (UniProtKB Q07820) (Homo sapiens (Human), UniProt Q07820) Ki reading for CN1c2ccccc2[C@]2(CC[C@@](Nc3cccc(Br)c3)(C(=O)O)CC2)C1=O [Example 17] .
**Result** 23100 nM

**Query** Specify the recorded Ki for O=C(O)[C@]1(Nc2cccc(Cl)c2)CC[C@@]2(CC1)c1ccccc1CC2c1ccc(Cl)cc1 (single isomer, unassigned) [Example 319] , system: Mcl-1 protein (UniProtKB Q07820) (Homo sapiens (Human), UniProt Q07820).
**Result** 906 nM

**Query** # return Ki for Cn1ccc(OCCCC2Cc3ccccc3[C@]23CC[C@@](Nc2cccc(Cl)c2)(C(=O)O)CC3)cc1=O (stereo partly drawn) [Example 479] , test system: Mcl-1 protein (UniProtKB Q07820) (Homo sapiens (Human), UniProt Q07820)
**Result** 809 nM

**Query** Given Cc1cncn(CCCC2=Cc3ccccc3[C@]23CC[C@@](Nc2cccc(Cl)c2)(C(=O)O)CC3)c1=O [Example 182] , report its Ki on Mcl-1 protein (UniProtKB Q07820) (Homo sapiens (Human), UniProt Q07820).
**Result** 1620 nM

**Query** Please tell me the measured Ki for O=C(O)C1(Nc2cccc(Cl)c2)CCC2(C=Cc3cccnc32)CC1 (single isomer, unassigned) [Example 71] ; system: Mcl-1 protein (UniProtKB Q07820) (Homo sapiens (Human), UniProt Q07820).
**Result** 984 nM

**Query** // fetch Ki for Cc1noc(C)c1C1Cc2ccccc2C12CCC(Nc1cccc(Br)c1)(C(=O)O)CC2 (single isomer, unassigned) [Example 231] ; system: Mcl-1 protein (UniProtKB Q07820) (Homo sapiens (Human), UniProt Q07820)
**Result** 7720 nM

**Query** Write Ki of COCCOc1cc(N[C@]2(C(=O)O)CC[C@@]3(CC2)C(Br)=Cc2ccccc23)ccn1 [Example 81] ; system used: Mcl-1 protein (UniProtKB Q07820) (Homo sapiens (Human), UniProt Q07820)
**Result** 15500 nM

**Query** State the measured Ki (Mcl-1 protein (UniProtKB Q07820) (Homo sapiens (Human), UniProt Q07820)) of O=C(O)[C@]1(Nc2cccc(Cl)c2)CC[C@@]2(CC1)c1ccccc1CC2CCOc1ccnc(F)c1 (stereo partly drawn) [Example 187]
**Result** 271 nM

**Query** Report the value of Ki obtained on Mcl-1 protein (UniProtKB Q07820) (Homo sapiens (Human), UniProt Q07820) for O=C(O)[C@]1(Nc2cccc(Cl)c2)CC[C@@]2(CC1)c1ccccc1C[C@H]2CCCOc1ccnc2ccsc12 [Example 439] .
**Result** 68.6 nM

**Query** Fill in Ki for COc1ccc2c(c1)[C@]1(CC[C@](Nc3cccc(Br)c3)(C(=O)O)CC1)C1(CCCC1)C2 [Example 94] tested with Mcl-1 protein (UniProtKB Q07820) (Homo sapiens (Human), UniProt Q07820).
**Result** 129000 nM

**Query** // fetch Ki for Cc1cc(OCCCC2Cc3ccccc3C23CCC(Nc2cccc(Cl)c2)(C(=O)O)CC3)cc(C)c1Cl (stereo not drawn) [Example 436] ; system: Mcl-1 protein (UniProtKB Q07820) (Homo sapiens (Human), UniProt Q07820)
**Result** 918 nM

**Query** Retrieve Ki on Mcl-1 protein (UniProtKB Q07820) (Homo sapiens (Human), UniProt Q07820); query CC[C@H](COc1ccnc2ccsc12)C[C@@H]1Cc2ccccc2[C@]12CC[C@@](Nc1cccc(Cl)c1)(C(=O)O)CC2 [Example 536]
**Result** 2100 nM

**Query** Output reported Ki of the molecule O=C(O)C1(Nc2cccc(Br)c2)CCC2(CC1)CNc1ccccc12 (stereo not drawn) [Example 3] on Mcl-1 protein (UniProtKB Q07820) (Homo sapiens (Human), UniProt Q07820).
**Result** 12800 nM

**Query** Recall the reported Ki of O=C(O)[C@]1(Nc2cccc(Cl)c2)CC[C@]2(CC1)C(CCNc1ccccc1)=Cc1ccccc12 [Example 166] on Mcl-1 protein (UniProtKB Q07820) (Homo sapiens (Human), UniProt Q07820) and write it down.
**Result** 688 nM
